Value source: patent US12662476B2

- System: Echinochloa crus-galli (ECHCG)
- PROTOCOL_DESCRIPTION: Pre-emergence herbicidal glasshouse test
- Format: in vivo
- CONDITIONS: sprayed after one day cultivation, 250 g/ha, evaluated after 13 days, five-point scale
ASSAY_ENDPOINT: percentage damage caused to the plant, ECHCG

| RECORD_SMILES | RESULT |
| --- | --- |
| Fc1cccc(Oc2nc(Cl)c(Cl)s2)c1-c1cc(C(F)F)no1 | 1 (1=0-20%) |
| Fc1cccc(-c2cc(C(F)F)no2)c1Oc1ncc(Cl)s1 | 4 (4=61-80%) |
| FC(F)c1cc(-c2c(Cl)cccc2Oc2ncc(Br)s2)on1 | 5 (5=81-100%) |
| FC(F)c1cc(-c2c(Br)cccc2Oc2ncc(Cl)s2)on1 | 5 (5=81-100%) |
| Fc1cccc(Oc2nc(C(F)(F)F)cs2)c1-c1cc(C(F)F)no1 | 4 (4=61-80%) |
| FC(F)c1cc(-c2c(Br)cccc2Oc2ncc(C(F)F)s2)on1 | 5 (5=81-100%) |
| FC(F)c1cc(-c2c(Br)cccc2Oc2nc(C(F)F)c(Cl)s2)on1 | 1 (1=0-20%) |
| Cc1cccc(-c2cc(C(F)F)no2)c1Oc1ncc(Cl)s1 | 4 (4=61-80%) |
| C=Cc1cnc(Oc2cccc(F)c2-c2cc(C(F)F)no2)s1 | 4 (4=61-80%) |
| FC(F)c1cc(-c2ccccc2Oc2ncc(C(F)F)s2)on1 | 4 (4=61-80%) |
| Fc1cccc(Sc2ncc(Cl)s2)c1-c1cc(C(F)F)no1 | 2 (2=21-40%) |
